test target: human αVβ3 receptor (Homo sapiens, UniProt P05106+P06756)
Sequence (P06756 31-889 limits assumed): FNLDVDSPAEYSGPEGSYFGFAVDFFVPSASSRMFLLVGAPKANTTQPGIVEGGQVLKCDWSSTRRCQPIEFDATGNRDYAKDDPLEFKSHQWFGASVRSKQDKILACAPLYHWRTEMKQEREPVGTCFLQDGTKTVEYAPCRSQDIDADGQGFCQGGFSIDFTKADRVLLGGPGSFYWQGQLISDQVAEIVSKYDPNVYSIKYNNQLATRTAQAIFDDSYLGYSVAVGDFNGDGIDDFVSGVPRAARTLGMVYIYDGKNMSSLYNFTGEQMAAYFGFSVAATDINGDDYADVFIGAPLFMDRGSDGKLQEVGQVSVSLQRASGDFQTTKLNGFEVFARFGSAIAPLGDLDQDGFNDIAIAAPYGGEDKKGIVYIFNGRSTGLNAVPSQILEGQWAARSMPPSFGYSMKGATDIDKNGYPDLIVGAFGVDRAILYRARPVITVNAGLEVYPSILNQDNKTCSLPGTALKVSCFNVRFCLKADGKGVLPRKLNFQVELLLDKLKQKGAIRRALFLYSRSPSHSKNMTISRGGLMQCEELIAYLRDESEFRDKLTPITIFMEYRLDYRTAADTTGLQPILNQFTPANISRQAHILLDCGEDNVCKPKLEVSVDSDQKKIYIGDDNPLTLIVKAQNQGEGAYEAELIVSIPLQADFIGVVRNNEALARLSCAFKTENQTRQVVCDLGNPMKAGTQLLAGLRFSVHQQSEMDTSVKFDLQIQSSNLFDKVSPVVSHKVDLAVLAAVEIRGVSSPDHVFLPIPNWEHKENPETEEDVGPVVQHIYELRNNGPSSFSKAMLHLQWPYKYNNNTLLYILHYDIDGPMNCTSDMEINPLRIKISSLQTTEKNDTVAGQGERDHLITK
Sequence (P06756 891-1048 partner limits assumed): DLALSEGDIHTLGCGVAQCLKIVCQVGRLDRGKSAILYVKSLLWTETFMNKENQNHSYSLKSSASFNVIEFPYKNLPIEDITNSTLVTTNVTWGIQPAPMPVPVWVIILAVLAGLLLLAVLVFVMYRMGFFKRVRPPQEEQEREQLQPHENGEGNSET
Sequence (P05106 27-788): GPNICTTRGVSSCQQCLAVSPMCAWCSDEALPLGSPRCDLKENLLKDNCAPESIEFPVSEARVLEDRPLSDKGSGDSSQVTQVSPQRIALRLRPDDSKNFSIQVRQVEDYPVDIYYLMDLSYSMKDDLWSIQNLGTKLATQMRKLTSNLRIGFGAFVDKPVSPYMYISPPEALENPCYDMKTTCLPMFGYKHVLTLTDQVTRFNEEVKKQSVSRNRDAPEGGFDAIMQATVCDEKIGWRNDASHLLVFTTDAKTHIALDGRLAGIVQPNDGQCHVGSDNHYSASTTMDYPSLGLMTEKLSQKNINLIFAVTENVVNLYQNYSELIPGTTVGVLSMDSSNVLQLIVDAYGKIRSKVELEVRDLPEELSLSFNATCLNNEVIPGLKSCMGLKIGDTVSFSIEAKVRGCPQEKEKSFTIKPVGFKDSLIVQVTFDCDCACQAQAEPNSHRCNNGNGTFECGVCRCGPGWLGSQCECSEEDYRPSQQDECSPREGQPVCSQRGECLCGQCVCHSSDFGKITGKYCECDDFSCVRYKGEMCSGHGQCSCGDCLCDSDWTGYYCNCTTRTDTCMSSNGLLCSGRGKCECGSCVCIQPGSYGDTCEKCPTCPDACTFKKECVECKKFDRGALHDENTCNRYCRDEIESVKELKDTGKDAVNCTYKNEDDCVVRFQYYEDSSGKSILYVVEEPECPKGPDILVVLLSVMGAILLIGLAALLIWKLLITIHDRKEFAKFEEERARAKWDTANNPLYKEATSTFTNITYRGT
protocol text: Kistrin/Vitronectin receptor (αVβ3) ELISA test
condition context: co-incubated 3 hours at ambient temperature, read-out: K/VnR IC50
quantity name: IC50 (nM)
One number for each entry, in nM.

Answered cases to consult:
• CCc1c(NCC(NC(=O)OCc2ccccc2)C(=O)O)ncnc1N1CCC(C(=O)N=C2NCCCN2)CC1 (racemic) = 160
• CCc1c(NCC(NC(=O)OCc2ccccc2)C(=O)O)ncnc1N1CCC(c2ccc3c(n2)NCCC3)CC1 (racemic) = 3
• Cc1c(NCC(NC(=O)OCc2ccccc2)C(=O)O)ncnc1N1CCC(C(=O)N=C2NCCCN2)CC1 (racemic) = 5.1

API: the following record is the query input.
Check the records and state IC50 for Cc1c(NCC(NC(=O)OCc2ccccc2)C(=O)O)ncnc1N1CCC(c2ccc3c(n2)NCCC3)CC1 (racemic)
3.1

# credit: patent US7763621B2
